pIC50: −log10 of the molar value.
The compounds below each have a reported pIC50 tested on glutaminase (GAC) (Homo sapiens, UniProt O94925); the values come from various publications.

CN(CC(=O)Nc1nnc(CCCCc2nnc(NC(=O)CN(C)C(=O)OC(C)(C)C)s2)s1)C(=O)OC(C)(C)C = 6.30 to 7.00
O=C(Cc1cccnn1)Nc1nnc([C@H]2CCC[C@H](c3nnc(NC(=O)Cc4cccnn4)s3)C2)s1 = 6.30 to 7.00
O=C(Cc1ccc(F)cn1)Nc1nnc([C@H]2CCC[C@H](c3nnc(NC(=O)Cc4ccc(F)cn4)s3)C2)s1 = > 7.00
O=C(Cc1cccc(N2CC(F)C2)c1)Nc1nnc([C@H]2CCC[C@H](c3nnc(NC(=O)Cc4cccc(N5CC(F)C5)c4)s3)C2)s1 = > 7.00
CC(=O)Nc1nnc(CCCCc2nnc(NC(=O)c3ccc4[nH]c(C)nc4c3)s2)s1 = > 7.00

Hello, I am looking for reported pIC50 with glutaminase (GAC) (Homo sapiens, UniProt O94925) for `COc1cccc(CC(=O)Nc2nnc([C@H]3CCC[C@H](c4nnc(NC(=O)Cc5ccccn5)s4)C3)s2)c1` . Could you help?
> 7.00

Hello, I am looking for reported pIC50 with glutaminase (GAC) (Homo sapiens, UniProt O94925) for `CC(=O)N(C)c1cccc(CC(=O)Nc2nnc([C@H]3CCC[C@H](c4nnc(NC(=O)Cc5cccc(N(C)C(C)=O)n5)s4)C3)s2)n1` . Could you help?
> 7.00

Hello, I am looking for reported pIC50 with glutaminase (GAC) (Homo sapiens, UniProt O94925) for `O=C(Cc1ccccn1)Nc1nnc(CC/C=C/CCc2nnc(NC(=O)Cc3ccccn3)s2)s1` . Could you help?
5.00 to 6.00

Hello, I am looking for reported pIC50 with glutaminase (GAC) (Homo sapiens, UniProt O94925) for O=C(Cc1cccnc1)Nc1nnc(C2CCC(c3nnc(NC(=O)Cc4cccnc4)s3)C2)s1 (centres unmarked) . Could you help?
6.30 to 7.00

Hello, I am looking for reported pIC50 with glutaminase (GAC) (Homo sapiens, UniProt O94925) for CC(=O)Nc1nnc([C@H]2CCC[C@H](c3nnc(NC(C)=O)s3)C2)s1 (single isomer, unassigned) . Could you help?
6.30 to 7.00

###

The compounds below each have a reported IC50 tested on glutaminase (GAC) (Homo sapiens); the values come from various publications.

N#Cc1cccc(CC(=O)Nc2nnc([C@H]3CCC[C@H](c4nnc(NC(=O)Cc5cccc(C#N)c5)s4)C3)s2)c1 (single isomer, unassigned) = < 0.1 µM
COc1cccc(CC(=O)Nc2nnc([C@H]3CCC[C@H](c4nnc(NC(=O)Cc5cccc(OC)c5OC)s4)C3)s2)c1OC = < 0.1 µM
O=C(CC1CCCCO1)Nc1nnc(CCS(=O)(=O)CCc2nnc(NC(=O)CC3CCCCO3)s2)s1 (stereo not shown) = 0.1 to 0.5 µM
O=C(Cc1ccccc1)Nc1nnc(CCCCCCc2nnc(NC(=O)Cc3ccccc3)s2)s1 = 1 to 10 µM
O=C(Cc1ccccc1)Nc1nnc([C@H]2CCC[C@H](c3nnc(NC(=O)Cc4ccccc4)s3)C2)s1 = < 0.1 µM

Hello, I am looking for reported IC50 with glutaminase (GAC) (Homo sapiens) for CC(C(=O)Nc1nnc(CCCCc2nnc(NC(=O)C(C)c3ccc(Cl)cc3)s2)s1)c1ccc(Cl)cc1 (stereo not shown) . Could you help?
0.1 to 0.5 µM

Hello, I am looking for reported IC50 with glutaminase (GAC) (Homo sapiens) for `O=C(Cc1ccc(N2CC(F)(F)C2)cn1)Nc1nnc([C@H]2CCC[C@H](c3nnc(NC(=O)Cc4ccc(N5CC(F)(F)C5)cn4)s3)C2)s1` . Could you help?
< 0.1 µM
